Reference source: patent US20250152746A1

Test system: PCSK9 gene
ASSAY NAME: PCSK9 gRNA/SpCas9 editing in primary cynomolgus hepatocytes (Tables 2, 22)
Format: cell-based, cynomolgus monkey
PROTOCOL CONDITIONS: SpCas9 mRNA MS002, 1250 ng/test article/mL, rep1
In the oligonucleotide strings, read from the 5' end, every base follows the letter of its sugar. An asterisk marks phosphorothioate; unmarked linkages are phosphodiester. Other units and linkages are bracketed, terminal groups are in braces. A string of capitals states the bases alone. m = 2'-O-methyl; r = 2'-OH (RNA)
The reader will find reported Cynomolgus Primary Hepatocytes-% Editing values listed item by item below.
# number only, unit % dropped from output

1) GA405: gRNA targeting PCSK9 with modifications to the tracr, for SpCas9 (nucleic acid) guide: mU*mC*mA*rGrCrUrCrCrArGrGrCrGrGrUrCrCrUrGrGmGrUrUrUrUrArGmAmGmCmUmAmGmAmAmAmUmAmGmCmAmArGrUrUmArAmArAmUrAmAmGmGmCmUmArGrUrCmCrGrUrUrAmUmCrArAmCmUmUmGmAmAmAmAmAmGmUmGmGmCmAmCmCmGmAmGmUmCmGmGmUmGmCmU*mU*mU*mUmUrUmU | 35.84

Given the entry GA398 (nucleic acid) guide: mU*mC*mA*rGrCrUrCrCrArGrGrCrGrGrUrCrCrUrGrGmGrUrUrUrUrArGmAmGmCmUmAmGmAmAmAmUmAmGmCmAmArGrUrUmArAmArAmUrAmAmGmGmCmUmArGrUrCmCrGrUrUrAmUmCrArAmCmUmUmGmAmAmAmAmAmGmUmGmGmCmAmCmCmGmAmGmUmCmGmGmUmGmCmU*mU*mU*mUmUmUmU , report its measured Cynomolgus Primary Hepatocytes-% Editing.
56.45
